All values here come from the supplement of paper PMC4466140.

For each entry below, report its SPOT peptide array binding signal intensity value.
Biological target: SpLsb4
Test: SPOT peptide array binding signal intensity (averaged, normalized) (arbitrary units (background-subtracted, floor 0; scale differs between SH3 domains)); higher = stronger binding of the SH3 domain to the peptide
Quick one: just the number, no unit, thanks!

Requested field: SPOT peptide array binding signal intensity. Item: `RKRRTHLRLPLIRSN`
260

Requested field: SPOT peptide array binding signal intensity. Item: `LKPPIGRPPKFPKSP`
29.5

Requested field: SPOT peptide array binding signal intensity. Item: `LFMKGTPEFPKSGFS`
629

Requested field: SPOT peptide array binding signal intensity. Item: `FPGKKSPRLPHRNKK`
2700
